Reference for the values: patent US9221787B2

IC50 overview
# Target system: recombinant human MetAP2 (Homo sapiens)
# Construct: Flag; made in house; host or cells: Sf9 insect cells
# Sequence (P50579 whole entry): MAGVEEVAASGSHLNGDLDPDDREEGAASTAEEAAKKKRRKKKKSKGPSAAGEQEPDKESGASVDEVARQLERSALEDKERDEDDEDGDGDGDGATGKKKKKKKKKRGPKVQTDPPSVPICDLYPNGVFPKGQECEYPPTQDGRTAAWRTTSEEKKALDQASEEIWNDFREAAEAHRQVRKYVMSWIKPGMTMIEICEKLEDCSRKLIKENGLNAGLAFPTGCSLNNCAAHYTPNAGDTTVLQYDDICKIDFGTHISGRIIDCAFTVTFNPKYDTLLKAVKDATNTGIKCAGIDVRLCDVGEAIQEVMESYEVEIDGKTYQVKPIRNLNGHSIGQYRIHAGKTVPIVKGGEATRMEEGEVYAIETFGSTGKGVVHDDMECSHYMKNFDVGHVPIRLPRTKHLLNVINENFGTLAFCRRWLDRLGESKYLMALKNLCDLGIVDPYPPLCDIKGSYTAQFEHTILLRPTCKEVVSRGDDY
# Assay summary: Inhibition of recombinant human MetAP2 activity (Amplex red fluorescence assay)
# Format: biochemical
# Cond: manganese enzyme, 0.75 mM Methionine-Alanine-Serine (MAS) substrate, 30 minutes at 25° C., pH 7.5, 1% DMSO

Here are 2 compounds together with their reported answers.
Item "CCc1sc(NS(=O)(=O)c2ccccc2)c(C(=O)O)c1C" has what recorded IC50? 200 to 2000 nM

Item "O=C(O)c1cc(C2CCOCC2)sc1NS(=O)(=O)c1ccccc1" has what recorded IC50? > 2000 nM

Next compound, please.
Item "O=C(O)c1cc(-c2ccccc2)sc1NS(=O)(=O)c1ccccc1" has what recorded IC50? > 2000 nM
